parameter: logP

For orientation, consider the following solved cases.
{"columns": ["smilesCode", "logP"],
 "data": [
  ["CCCCN(CCCC)c1cc(N)[n+]([O-])c(N)n1", 3.19],
  ["Nc1cc(N2CCOCC2)nc(N)[n+]1[O-]", 0.36]
]}

A. CCCCCCCCCCNc1cc(N)[n+]([O-])c(N)n1
B. CN(C)c1cc(N)[n+]([O-])c(N)n1
Parameter check: reported logP is higher for which label, A or B ? Your answer should be the label of the entry you select.
A
